target-entity: α-Glucosidase from Saccharomyces cerevisiae
experiment-notes: In vitro α-glucosidase inhibitory activity (UV absorbance at 405 nm, p-nitrophenyl glycoside substrate)
measurement-setup: mean ± SD from three parallel measurements; phosphate buffer pH 7.0, 37 °C, absorbance at 405 nm; read-out: IC50, inhibitory effects against α-glucosidase
recorded-metric: IC50 (µM)

[1] CC(/C=C/C(=O)O)=C\C=C\C(C)=C\C(C)=C\C(=O)O [Compound 1]
[2] CC(=O)C[C@@H](O)Cc1cc2cc(O)cc(O)c2c(=O)o1 [Compound 6, citreoisocoumarin]
Query :: For the two items 1 and 2 , which reports the higher IC50 value? Returns: label corresponding to the selected item.
Result :: 2
(2: 539 µM, 1: 122 µM)

* * *

target-entity: α-Glucosidase from Saccharomyces cerevisiae
experiment-notes: In vitro α-glucosidase inhibitory activity (UV absorbance at 405 nm, p-nitrophenyl glycoside substrate)
measurement-setup: mean ± SD from three parallel measurements; phosphate buffer pH 7.0, 37 °C, absorbance at 405 nm; read-out: IC50, inhibitory effects against α-glucosidase
recorded-metric: IC50 (µM)

As a guide, the following entries are already answered.
COC(=O)/C=C/C(C)=C/C=C/C(C)=C/C(C)=C/C(=O)O [Compound 2] = 23.5
C[C@H](O)C[C@@H](O)Cc1cc2cc(O)cc(O)c2c(=O)o1 [Compound 4, 12-epicitreoisocoumarinol] = 344

[A] C[C@@H](O)C[C@@H](O)Cc1cc2cc(O)cc(O)c2c(=O)o1 [Compound 5, citreoisocoumarinol]
[B] COC(=O)/C=C/C(C)=C/C=C/C(C)=C\C(C)=C\C(=O)O [Compound 3]
Query :: I'm curious whether A or B has the smaller IC50 number. Which is it? Returns: label corresponding to the selected item.
Result :: B
(B: 42.3 µM, A: 392 µM)
